Recorded measurements of TGI, one per entry
# System: ACHN renal
# assayNotes: NCI tumour cell line growth inhibition, 48 h

Some molecules with recorded TGI:
Entry under test: CC1CN=C(Nc2cccc(C(F)(F)F)c2)S1 (stereo not given) . Its TGI was > 100 µM

Entry under test: COc1ccc([C@H]2c3cc(OC)c(OC)cc3C=C(C=O)C2CO)cc1OC (stereo not given in full) . Its TGI was > 100 µM

Entry under test: COc1ccc(CCNc2nc3ccccc3c3[nH]c4ccccc4c23)cc1OC . Its TGI was 17.1 µM

Entry under test: O=[N+]([O-])c1ccc2c(c1)nc(Cc1ccccc1)n2C[C@@H]1CCCN2CCCCC12 (stereo not given in full) . Its TGI was > 100 µM

Entry under test: Cc1c(C(=O)/C=C/c2ccco2)[n+](=O)c2ccccc2n1[O-] . Its TGI was > 100 µM

Next:
Entry under test: O=C(CC(O)(c1ccccc1)c1ccc(Cl)cc1)NC(=O)c1ccccc1O (stereo not given) . Its TGI was 99 µM

###

# Test system: UO-31 renal
# assayNotes: NCI tumour cell line growth inhibition, 48 h
Recorded measurements of TGI, one per entry

Some compounds with recorded TGI:
Kindly note: UO-31 renal, COc1ccc(CN2CCc3c(Cl)nc(N)nc3C2=O)c(OC)c1 , TGI value reported: 43.8 µM

Kindly note: UO-31 renal, CC(=O)OCC1OC(n2cc(F)c(=O)[nH]c2=O)C(OC(C)=O)C1OC(C)=O (stereo unspecified) , TGI value reported: > 96.1 µM

Kindly note: UO-31 renal, COC(=O)C1=C(C)N2CCCOC2(C)C(C(=O)OC)C1c1cccc(Cl)c1 (stereo unspecified) , TGI value reported: 71.2 µM

Next:
Kindly note: UO-31 renal, COc1ccc(CN(O)C2C(CO)OC(n3cc(I)c(=O)[nH]c3=O)C2O)cc1 (stereo unspecified) , TGI value reported: > 100 µM

Kindly note: UO-31 renal, COc1ccc(/C=N\N2CC(=O)N3C4C=CC(CC4)N3C2=O)cc1 (stereo unspecified) , TGI value reported: > 100 µM

Kindly note: UO-31 renal, CC1(CCCC2(C)CCNC2=O)OCCO1 (stereo unspecified) , TGI value reported: > 10 µM

Kindly note: UO-31 renal, CCOC(=O)c1ccc(-c2cc(C)[nH]n2)[nH]1 , TGI value reported: > 100 µM

Kindly note: UO-31 renal, Cc1c(C(=O)/C=C/c2ccco2)[n+](=O)c2ccccc2n1[O-] , TGI value reported: > 100 µM

###

# Test system: CCRF-CEM leukemia
# assayNotes: NCI tumour cell line growth inhibition, 48 h
endpoint: TGI

Entry under test: CCOC(=O)c1ccc(-c2cc(C)[nH]n2)[nH]1 . Its TGI was > 100 µM

Entry under test: CCCOC(=O)C1CCC(=O)N1C(=O)C(Cl)Cl (stereo not drawn) . Its TGI was > 100 µM

Entry under test: CC1(CCCC2(C)CCNC2=O)OCCO1 (stereo not drawn) . Its TGI was > 10 µM

Entry under test: Clc1ccc(Cl)c(N/N=C\c2c[nH]c3ccccc23)c1 . Its TGI was 11.7 µM

###

# Tested on: CCRF-CEM leukemia
# assayNotes: NCI tumour cell line growth inhibition, 48 h
endpoint: TGI

Entry under test: O=c1ccc2nc(-c3ccccc3)nn(-c3ccccc3)c-2c1 . Its TGI was 1.23 µM

Entry under test: Nc1ccc2c(c1)C1Oc3ccccc3CC1CO2 (stereo not drawn) . Its TGI was > 100 µM

Entry under test: CC(C)Oc1cc(OCC(=O)O)cc(C(=O)N(CCC(N)=O)C(=O)Nc2ccc(C(=O)O)cc2OC(C)C)c1 . Its TGI was > 100 µM

Entry under test: O=c1c2ccccc2oc2c1ccc1ncccc12 . Its TGI was > 100 µM

Entry under test: Cc1nc2c(cnn2-c2ccnc3c(C(F)(F)F)cccc23)c(=O)o1 . Its TGI was > 100 µM

Next:
Entry under test: COc1cc[c]([Hg][Cl])cc1 . Its TGI was 5.4 µM

Entry under test: O=C(CC(O)(c1ccccc1)c1ccc(Cl)cc1)NC(=O)c1ccccc1O (stereo not drawn) . Its TGI was 43.2 µM

Entry under test: CC(C)(O)Cn1c(=O)c(Oc2ccc(F)cc2F)cc2cnc(NC3CCOCC3)nc21 . Its TGI was > 25 µM

Entry under test: COc1ccc(/C=N\N2CC(=O)N3C4C=CC(CC4)N3C2=O)cc1 (stereo not drawn) . Its TGI was > 100 µM

Entry under test: COC1CC(OC2OC(CO)C(O)C(O)C2O)/C(=C\C#N)C(O)C1OC (stereo not drawn) . Its TGI was > 100 µM

Entry under test: Cn1ccnc1CCc1ccc(F)cc1F . Its TGI was > 100 µM

Entry under test: COc1ccc(CCNc2nc3ccccc3c3[nH]c4ccccc4c23)cc1OC . Its TGI was 13.8 µM

Entry under test: O=C1NN=C(c2ccc(Cl)cc2)CC1C1C(=O)N(c2ccccc2)N=C1c1ccccc1 (stereo not drawn) . Its TGI was 76.3 µM

Entry under test: O=c1c(Cl)nsnc1Cl . Its TGI was 3.27 µM

Entry under test: C=C1C(=O)OC2C1C(OC(=O)/C(=C/C)COC(C)=O)CC1(CO1)C1C(OC(=O)/C(=C/C)CO)C=C(C)C21 (stereo not drawn) . Its TGI was 2.13 µM

Entry under test: COC(=O)C1Cc2c([nH]c3ccccc23)[C@H](CC(C)C)N1 (stereo partly drawn) . Its TGI was > 100 µM

Entry under test: O=C(CC1Sc2ccccc2NC1=O)Nc1cccc(Cl)c1 (stereo not drawn) . Its TGI was > 100 µM

Entry under test: COC(=O)C(=O)C(C#N)c1cccc2ccccc12 (stereo not drawn) . Its TGI was > 100 µM

Entry under test: COCn1c(C)c(C)c2c(=O)oc(=O)[nH]c21 . Its TGI was > 100 µM

Entry under test: CC1CN=C(Nc2cccc(C(F)(F)F)c2)S1 (stereo not drawn) . Its TGI was > 100 µM

Entry under test: COc1ccc(CN(O)C2C(CO)OC(n3cc(I)c(=O)[nH]c3=O)C2O)cc1 (stereo not drawn) . Its TGI was > 100 µM

Entry under test: COc1ccc(-c2oc3ccc(C)cc3c(=O)c2O)cc1 . Its TGI was > 100 µM

Entry under test: CCOC(=O)C(=[N+]=[N-])C(=O)C[N+]12CCN(CC1)CC2 . Its TGI was > 100 µM

###

# Tested on: OVCAR-4 ovarian
# assayNotes: NCI tumour cell line growth inhibition, 48 h; in the data active = GI50 below about 0.43 µM; inactive = the rest
# output must be one of active, inactive

Please state the recorded outcome for this compound: COC12C=C/C(=C(/C(=O)OCc3ccncn3)C(=O)CCCCCCCCC3(OC)C=C/C(=C(/C(=O)OCc4ccncn4)C(=O)CCCCCCCC1)O3)O2
active

Please state the recorded outcome for this compound: CC[C@]1(O)C[C@@H]2CN(Cc3c([nH]c4ccccc34)[C@@](C(=O)OC)(c3cc4c(cc3OC)N(C)[C@H]3[C@@](O)(C(=O)OC)[C@H](OC(C)=O)[C@]5(CC)[C@@H]6C[C@@H]6CN6CC[C@]43[C@@H]65)C2)C1
inactive

Please state the recorded outcome for this compound: COc1cc([C@@H]2c3cc4c(cc3[C@H](OC3OC5COC(c6ccccc6)OC5C(O)C3O)[C@H]3COC(=O)[C@H]23)OCO4)cc(OC)c1OC (stereo partly drawn)
inactive

Please state the recorded outcome for this compound: COc1ccccc1/C=C1\COc2ccc(O)c(O)c2C1=O
inactive

Please state the recorded outcome for this compound: O=C1CCC/C=C\C[C@H]2C=C(Cl)C(=O)/C2=C/C[C@H](CCCCC(F)(F)F)OC(=O)CCC/C=C\C[C@H]2C=C(Cl)C(=O)/C2=C/C[C@H](CCCCC(F)(F)F)O1
active

Please state the recorded outcome for this compound: Cc1c(CNc2ccc(Cl)c(C(=O)NC(CC(=O)O)C(=O)O)c2)ccc2nc(N)nc(N)c12 (stereo not drawn)
inactive

Please state the recorded outcome for this compound: CC(C)(O)Cn1c(=O)c(Oc2ccc(F)cc2F)cc2cnc(NC3CCOCC3)nc21
inactive

Please state the recorded outcome for this compound: Cc1cc2c(-c3nc4ccccc4[nH]3)c(O)c(O)cc2c(O)c1-c1c(C)cc2c(-c3nc4ccccc4[nH]3)c(O)c(O)cc2c1O
active

###

Recorded measurements of TGI, one per entry
# System: OVCAR-8 ovarian
# assayNotes: NCI tumour cell line growth inhibition, 48 h
Give the value, in units of µM, as a plain number.

Entry under test: c1ccc2c(c1)c1c(n2CCOCCN2CCCCC2)CCCC1 . Its TGI was 28.4

Entry under test: O=C(CCCCCCc1nc2ccc(Br)cc2[nH]1)NO . Its TGI was 16

Entry under test: CC(=O)O[C@@H]1C=CC(=O)C2(CC(=O)O[C@@H]2/C=C(\C)CCC=C(C)C)C1 (stereo partly specified) . Its TGI was 1.81

Entry under test: CC/C(Cl)=N\OC(=O)Nc1ccc(OC)cc1 . Its TGI was 37.4

Next:
Entry under test: N#Cc1c([N+](=O)[O-])cc(C(F)(F)F)cc1[N+](=O)[O-] . Its TGI was 4.36
